- target-system: ETS1 (UniProt P14921)
- Sequence: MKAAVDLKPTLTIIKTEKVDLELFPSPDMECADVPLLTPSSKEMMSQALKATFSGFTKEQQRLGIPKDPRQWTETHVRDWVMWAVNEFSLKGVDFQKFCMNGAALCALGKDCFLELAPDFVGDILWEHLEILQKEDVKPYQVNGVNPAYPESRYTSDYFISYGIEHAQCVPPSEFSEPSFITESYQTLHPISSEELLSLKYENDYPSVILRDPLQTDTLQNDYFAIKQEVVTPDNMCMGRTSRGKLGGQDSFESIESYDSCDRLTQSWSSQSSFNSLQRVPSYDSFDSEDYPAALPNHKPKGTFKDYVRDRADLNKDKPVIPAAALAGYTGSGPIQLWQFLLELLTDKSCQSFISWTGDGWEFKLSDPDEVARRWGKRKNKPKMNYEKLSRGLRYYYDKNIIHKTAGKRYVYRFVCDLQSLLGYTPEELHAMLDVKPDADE
- measurement-notes: ETS1 binding intensity (PBM fluorescence), ETS1 alone (arbitrary fluorescence units); higher = stronger binding
- particulars: ETS1 concentration 1 nM; RUNX1 concentration 0 nM
The full ranking holds about 4,100 sequences; the median of “arbitrary fluorescence units” is about 780, and the highest 2% start at about 22,000. Many of the other results were omitted from the sample, so the highest values are more common in it than they were.
Task for the reader: assign each of the following sequences its reported ETS1 binding intensity.
Give bare numbers.

Take a look at these entries with their results.
primary_sequence=GCTCGCAGCCCCAAGAGGTGGCCTTCGGTTCCGGGG result=382
primary_sequence=GCACCACCGGAAGTAGGGCTCAACCTCCGCTCATTT result=24400
primary_sequence=GGGCCCACATCCGGCGCGCGCAACAGCAGCCTACTG result=25800
primary_sequence=GTCCAACAGCAGCCAGGCAAGCACATCCTGCCCCAC result=1980
primary_sequence=GCAGAGAGGAAGTGTGGGGGTGGAGGAGGCCGAAGA result=1840

For each listed entry, give its ETS1 binding intensity.
1. TATCAGCTTCCGACGTGCCCCTCGGTATCTGGACTA
2. AACTTCCTTCCCGAGAGCCTGAAGCAGCCGTAGGCC
3. AGAAGTGCAGTGGAGGAGGGCCGGAACGGTGACTAT
4. TACTCTAAAGCACTTCAAACCTCCACTTCCTGCCCC
5. TGACTTCCGGTCCGTAGTGGGGCCTTCGGTGGGAGT
6. CCGCGAACAGCAGAATTCCCGCCTTCCGCAGCCCGG
7. TAGGTCACCTCCGCGACACAGCAACGGAAGTAGGGT

1600
9120
393
2240
35800
480
1110

Looking for the measured ETS1 binding intensity of GGGCCCCTCAGCCCGACCGCCTGACCGGAAGTGCAG , can you help?
5030

* * *

- target-system: ETS1 (UniProt P14921)
- Sequence: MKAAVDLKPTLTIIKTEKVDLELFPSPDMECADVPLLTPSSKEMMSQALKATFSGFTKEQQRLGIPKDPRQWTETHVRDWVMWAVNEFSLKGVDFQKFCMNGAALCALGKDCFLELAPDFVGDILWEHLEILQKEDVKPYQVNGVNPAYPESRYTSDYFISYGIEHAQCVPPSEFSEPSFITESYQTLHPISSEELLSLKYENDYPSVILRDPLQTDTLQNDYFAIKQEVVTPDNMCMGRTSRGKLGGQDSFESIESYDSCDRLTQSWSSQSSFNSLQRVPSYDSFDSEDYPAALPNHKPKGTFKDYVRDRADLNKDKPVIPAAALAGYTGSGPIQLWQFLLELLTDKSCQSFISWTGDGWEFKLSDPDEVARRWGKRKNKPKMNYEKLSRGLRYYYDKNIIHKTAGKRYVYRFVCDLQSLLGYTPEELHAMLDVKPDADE
- measurement-notes: ETS1 binding intensity (PBM fluorescence), ETS1 alone (arbitrary fluorescence units); higher = stronger binding
- particulars: ETS1 concentration 1 nM; RUNX1 concentration 0 nM
Whole data set: some 4,100 sequences, median “arbitrary fluorescence units” near 780, cut for the highest 2% near 22,000. Only a selection was taken, and the highest values are over-represented in it overall.
# ETS1 binding intensity binned as b0: < 600; b1: ≥ 600 and < 2000; b2: ≥ 2000

primary_sequence=CTCTGCTTCCTGTCTTTGAATGCCTCTGTGATTTTC discrete_label=b2
primary_sequence=ACGCGCGCGGGGGAGGTGGCTTCTTCCGGCCGGGCC discrete_label=b1
primary_sequence=CTGACGCATTTCCGGCCTTTGGGGTTGATCGGTCAT discrete_label=b2
primary_sequence=CTTAGCACTTGTAGTCAGCCTGCTTCCGGCTGTGGC discrete_label=b2
primary_sequence=GGCCTACGGGAGGGCCCGCCTTGGCTGCTTCCGCAG discrete_label=b0
primary_sequence=CAGCTGCAGGCCTGGGTGTACGGAGCCCGGAACAGG discrete_label=b0
primary_sequence=CACGGAGCCACTTCCGGCGGCTGTGAGCGCAAAACC discrete_label=b2
primary_sequence=CCCGGCGGCTACTTTCGGTCACTTTCGCCGGAACCT discrete_label=b0

Which class holds CCTGAGCGCCCGGAAGGAAGGCTGGGGTAGGTTGTC ?
b1

Which class holds GATGAGGGCTTGCGCGCAAACAGCCCGGAAATGAGG ?
b1

Which class holds GGCGGCTGTGAGCGCAAAACCCAAAACTTCCGATGG ?
b0

Which class holds CGTGTGAGGGGGCGCAAGGCAGCGGCAGCTTCCGCC ?
b1
